Test system: cultured human mast cells (CHMC)
Assay: CHMC low cell density IgE activation: tryptase assay
Format: cell-based
Conditions: low cell density; read-out: CHMC anti-IgE Tryptase
# label = true if IC50 < 0.4 µM else false

molecule="CCN(CC)CCNC(=O)c1ccc(Nc2ncc(F)c(Nc3ccc4c(c3)NC(=O)C(CCO)O4)n2)cc1 (racemic) [Compound R950448]" cat=false
molecule="COc1ccc(Nc2ncc(F)c(NC3CCC3)n2)cc1Cl [Compound R945395]" cat=false
molecule="COc1c(Cl)cc(Nc2ncc(F)c(Nc3ccc(Cl)c(Cl)c3)n2)cc1Cl [Compound R927058]" cat=false
molecule="COC(=O)c1ccc(Cn2cc3ccc(Nc4ncc(F)c(Nc5ccc(Cl)c(Cl)c5)n4)cc3n2)c(OC)c1 [Compound R935396]" cat=false

Now for a further molecule.
Strictly below 0.4 µM in IC50? COc1cc(Nc2ncc(F)c(Nc3ccc4cc[nH]c4c3)n2)cc(OC)c1 [Compound R927089]
true
